experiment.summary: protein stability index of a GFP-peptide fusion (GPS, HEK-293T) (PSI 1-6); higher = more stable;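 also: 24-mer peptide tiles fused after GFP, lentivirally expressed, FACS-sorted into six equal bins by GFP/DsRed ratio, decoded by Illumina sequencing, PSI is the read-weighted mean bin number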
assay.setup: treatment: DMSO; c terminus: a fixed tail appended
quantity.name: protein stability index
// keep it numeric: no unit symbol after the value

Before answering, review these 5 worked examples.
primary.sequence	protein stability index
GYQHVDLQNFSSSWSDGMAFCALV [SMTNL2]	2.16
VESLKRFCASTRLPPTPLLLFPEE [AUP1]	2.81
PEGSVSGSQPNSGLALESSSGLQD [NFE2L1]	5.46
AFGAPIGGTLFSLEEGSSFWNQGL [CLCN6]	2.47
SRRLQLGSEENGRYFSLSLMSGAL [PCDHGC5]	2.27

**Query** Sample YKPNPQIYVKLIEECTDLQKEGEF [OAS1] — what was its protein stability index?
**Result** 3.54

**Query** Sample WIRICRPGSIIGPQQHFLEEKQAS [CDC14A] — what was its protein stability index?
**Result** 2.18

**Query** Sample GKWPQVLFFPEGTCSNKKALLKFK [LPCAT4] — what was its protein stability index?
**Result** 2.52
